Cited source: the supplement of paper PMC6555819

- System: RARa:RXR (NR concentration 270 nM, RXRa partner concentration 90 nM)
- EXPERIMENT DESCRIPTION: PBM binding z-score (relative to random genomic background probes); higher = stronger binding; sequences stand for … in GC…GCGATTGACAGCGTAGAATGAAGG
The label depends only on PBM binding z-score: met if it is at least 2, not met if it is smaller.

Please review the entries below; each comes with its answer.
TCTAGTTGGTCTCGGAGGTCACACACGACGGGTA	met
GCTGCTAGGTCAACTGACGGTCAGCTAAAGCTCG	met
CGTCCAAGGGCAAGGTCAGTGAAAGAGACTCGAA	met

Query: Dear colleague, could you confirm whether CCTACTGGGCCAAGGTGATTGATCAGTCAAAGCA has PBM binding z-score at or above 2?
Reply: not met

Query: Dear colleague, could you confirm whether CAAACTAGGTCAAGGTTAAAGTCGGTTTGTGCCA has PBM binding z-score at or above 2?
Reply: met
